# assay_info: Cytotoxicity against human PC3 cells assessed as growth inhibition after 96 hrs by SRB assay
# Type: functional, cell-based
# particulars: PC-3, 96 h
value_kind: pIC50
Expect pIC50 as a plain number equal to -log10 of the molar concentration.

Give the reported pIC50 for this compound. "C=C(C)[C@@H]1CC[C@]2(C(=O)O)CC[C@]3(C)[C@H](CC[C@@H]4[C@@]5(C)CC[C@H](O)C(C)(C)[C@@H]5CC[C@]43C)[C@@H]12"
4.56

# return recorded pIC50 for entry "C=C(C)[C@@H]1CC[C@]2(C(=O)O)CC[C@]3(C)[C@H](CC[C@@H]4[C@@]5(C)CC[C@H](NC(=O)C6CCNCC6)C(C)(C)[C@@H]5CC[C@]43C)[C@@H]12"
5.95

Answer with reported pIC50 of C=C(C)[C@@H]1CC[C@]2(C(=O)O)CC[C@]3(C)[C@H](CC[C@@H]4[C@@]5(C)CC[C@H](OC(=O)C6CCCNC6)C(C)(C)[C@@H]5CC[C@]43C)[C@@H]12 (some centres undefined)
5.09

State, in one line, measured pIC50 of "C=C(C)[C@@H]1CC[C@]2(C(=O)O)CC[C@]3(C)[C@H](CC[C@@H]4[C@@]5(C)CC[C@H](NC(=O)CC6CCNCC6)C(C)(C)[C@@H]5CC[C@]43C)[C@@H]12"
5.59

Values compiled from ChEMBL document CHEMBL3414486.
